system: GFP-14-3-3β; experiment: GFP-14-3-3β co-IP with LC-MS/MS, untreated GFP-14-3-3β versus GFP control (14-3-3 interactome); assay type: binding, human; settings: untreated vs GFP; LFQ intensities, replicates 1-3
# Difference (log2), untreated vs GFP per record follows

molecule	Difference (log2), untreated vs GFP
SH3BP5L (protein, UniProt Q7L8J4 1-393, looked up) SH3 domain-binding protein …: MAELRQVPGGRETPQGELRPEVVEDEVPRSPVAEEPGGGGSSSSEAKLSPREEEELDPRIQEELEHLNQASEEINQVELQLDEARTTYRRILQESARKLNTQGSHLGSCIEKARPYYEARRLAKEAQQETQKAALRYERAVSMHNAAREMVFVAEQGVMADKNRLDPTWQEMLNHATCKVNEAEEERLRGEREHQRVTRLCQQAEARVQALQKTLRRAIGKSRPYFELKAQFSQILEEHKAKVTELEQQVAQAKTRYSVALRNLEQISEQIHARRRGGLPPHPLGPRRSSPVGAEAGPEDMEDGDSGIEGAEGAGLEEGSSLGPGPAPDTDTLSLLSLRTVASDLQKCDSVEHLRGLSDHVSLDGQELGTRSGGRRGSDGGARGGRHQRSVSL	3.944
CDC42EP1 (protein, UniProt Q00587 1-391, looked up) Cdc42 effector protein 1: MPGPQGGRGAATMSLGKLSPVGWVSSSQGKRRLTADMISHPLGDFRHTMHVGRGGDVFGDTSFLSNHGGSSGSTHRSPRSFLAKKLQLVRRVGAPPRRMASPPAPSPAPPAISPIIKNAISLPQLNQAAYDSLVVGKLSFDSSPTSSTDGHSSYGLDSGFCTISRLPRSEKPHDRDRDGSFPSEPGLRRSDSLLSFRLDLDLGPSLLSELLGVMSLPEAPAAETPAPAANPPAPTANPTGPAANPPATTANPPAPAANPSAPAATPTGPAANPPAPAASSTPHGHCPNGVTAGLGPVAEVKSSPVGGGPRGPAGPALGRHWGAGWDGGHHYPEMDARQERVEVLPQARASWESLDEEWRAPQAGSRTPVPSTVQANTFEFADAEEDDEVKV	1.906
HNRNPA3 (protein, UniProt P51991 1-378, looked up) Heterogeneous nuclear …: MEVKPPPGRPQPDSGRRRRRRGEEGHDPKEPEQLRKLFIGGLSFETTDDSLREHFEKWGTLTDCVVMRDPQTKRSRGFGFVTYSCVEEVDAAMCARPHKVDGRVVEPKRAVSREDSVKPGAHLTVKKIFVGGIKEDTEEYNLRDYFEKYGKIETIEVMEDRQSGKKRGFAFVTFDDHDTVDKIVVQKYHTINGHNCEVKKALSKQEMQSAGSQRGRGGGSGNFMGRGGNFGGGGGNFGRGGNFGGRGGYGGGGGGSRGSYGGGDGGYNGFGGDGGNYGGGPGYSSRGGYGGGGPGYGNQGGGYGGGGGYDGYNEGGNFGGGNYGGGGNYNDFGNYSGQQQSNYGPMKGGSFGGRSSGSPYGGGYGSGGGSGGYGSRRF	1.1202
CENPV (protein, UniProt Q7Z7K6 1-275, looked up) Centromere protein V: MRRSRSSAAAKLRGQKRSGASGASAAPAASAAAALAPSATRTRRSASQAGSKSQAVEKPPSEKPRLRRSSPRAQEEGPGEPPPPELALLPPPPPPPPTPATPTSSASNLDLGEQRERWETFQKRQKLTSEGAAKLLLDTFEYQGLVKHTGGCHCGAVRFEVWASADLHIFDCNCSICKKKQNRHFIVPASRFKLLKGAEHITTYTFNTHKAQHTFCKRCGVQSFYTPRSNPGGFGIAPHCLDEGTVRSMVTEEFNGSDWEKAMKEHKTIKNMSKE	2.895
FBL (protein, UniProt P22087 1-321, looked up) rRNA 2'-O-methyltransferase …: MKPGFSPRGGGFGGRGGFGDRGGRGGRGGFGGGRGRGGGFRGRGRGGGGGGGGGGGGGRGGGGFHSGGNRGRGRGGKRGNQSGKNVMVEPHRHEGVFICRGKEDALVTKNLVPGESVYGEKRVSISEGDDKIEYRAWNPFRSKLAAAILGGVDQIHIKPGAKVLYLGAASGTTVSHVSDIVGPDGLVYAVEFSHRSGRDLINLAKKRTNIIPVIEDARHPHKYRMLIAMVDVIFADVAQPDQTRIVALNAHTFLRNGGHFVISIKANCIDSTASAEAVFASEVKKMQQENMKPQEQLTLEPYERDHAVVVGVYRPPPKVKN	2.48

Taken from paper PMC7367873.
